# ASSAY_TARGET: HLA-B*07:02
# PROTOCOL_DETAILS: IEDB peptide-MHC binding, purified MHC/direct/fluorescence; filed as Kd, often an IC50 or EC50 that approximates it; bounds were set here for any values at or beyond the usual limits of such assays
# CONDITION: source organism: Pseudomonas aeruginosa
TEST_READOUT: Kd (µM)
State just the number; it will be interpreted in µM.

Please give the measured Kd for this sequence: FSDARLAKL 7.92

====

# ASSAY_TARGET: HLA-C*06:02
# PROTOCOL_DETAILS: IEDB peptide-MHC binding, purified MHC/direct/fluorescence; filed as Kd, often an IC50 or EC50 that approximates it; bounds were set here for any values at or beyond the usual limits of such assays
# CONDITION: source organism: Salmonella enterica subsp. enterica serovar Typhi str. CT18
TEST_READOUT: pKd
Friendly reminder that pKd comes from taking -log10 of the concentration in mol/L.

Please give the measured pKd for this sequence: YLRNAGAAM 5.44
